- assayed.system: protein-protein interaction between Kras and SOS1 (biotin-tagged human Kras loaded with GDP, His-tagged human SOS1) (Homo sapiens (Human), UniProt P01116, G12D)
- procedure.summary: Protein-protein interaction inhibition between Kras and SOS1 (KrasG12D-SOS PPI) using AlphaScreen;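 note: kras produced in E. coli, Ni-coupled donor beads and streptavidin acceptor beads, excitation 680 nm with emission detected at 520–620 nm via singlet oxygen transfer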
- Type: biochemical
- test.conditions: AlphaScreen; biotin-tagged human Kras loaded with GDP, His-tagged human SOS1; read-out: KRAS G12D-SOS PPI IC50
Numbered stars: 1 amine (or outer) side, 2 acyl side, 3 side chain; on linkers, the order of the positions; unused ones are H or OH. Bridge positions count the residues as written; N and C are the ends. Square brackets hold non-standard residues; d marks the D form. Peptide text beside a SMILES is read from it. * marks the point of attachment. hPhe(3-Cl-4-CF3) = N[C@@H](CCc1ccc(C(F)(F)F)c(Cl)c1)C(=O)O; hPhe(3-F,4-CF3) = N[C@@H](CCc1ccc(C(F)(F)F)c(F)c1)C(=O)O; NMePhe(4-CF3) = CN[C@@H](Cc1ccc(C(F)(F)F)cc1)C(=O)O; X77 = O=C(CN(CCN1CCC(F)(F)CC1)[*:1])[*:2]; NMeGly(cPent) = CN[C@H](C(=O)O)C1CCCC1; NMeGly(cBu) = CN[C@H](C(=O)O)C1CCC1; NMeCha = CN[C@@H](CC1CCCCC1)C(=O)O; Hyp = O=C(O)[C@@H]1C[C@@H](O)CN1; NMeChg = CN[C@H](C(=O)O)C1CCCCC1; Piperidide(4-Me) = CC1CCN(*)CC1; NMeD = CN[C@@H](CC(=O)O)C(=O)O; dNMeD = CN[C@H](CC(=O)O)C(=O)O; NMeL = CN[C@@H](CC(C)C)C(=O)O; NMeV = CN[C@H](C(=O)O)C(C)C; Azetidin(1-yl) = C1CN(*)C1; NMeA = CN[C@@H](C)C(=O)O; Piperidide = C1CCN(*)CC1; Pyrrolidide = C1CCN(*)C1; Ac5c = NC1(C(=O)O)CCCC1; Aze = O=C(O)[C@@H]1CCN1; Sar = CNCC(=O)O
measurement.type: pIC50
Scale note: pIC50 = -log10(concentration in M).

1) CC[C@H](C)[C@@H]1NC(=O)[C@H](C2CCC2)N(C)C(=O)C[C@@H](C(=O)N2CCCCC2)N(C)C(=O)[C@H](C2CCCC2)N(C)C(=O)C2(CCCC2)NC(=O)[C@@H]2CCCN2C(=O)[C@H](CCc2ccc(C(F)(F)F)c(Cl)c2)NC(=O)CN(C)C(=O)[C@H](CC2CCCCC2)N(C)C(=O)[C@@H]2CCN2C(=O)[C@H](C)N(C)C1=O [Compound 270] ([NMeGly(cBu)]I[NMeA][Aze][NMeCha][Sar][hPhe(3-Cl-4-CF3)]P[Ac5c][NMeGly(cPent)][NMeD]-Piperidide; lactam N-11); 9.17

Any idea what its pIC50 is? The molecule is CC[C@H](C)[C@@H]1NC(=O)[C@H](CC(C)C)N(C)C(=O)C[C@H](C(=O)N2CCCC2)N(C)C(=O)[C@H](C2CCCC2)N(C)C(=O)C2(CCCC2)NC(=O)[C@@H]2CCCN2C(=O)[C@H](CCc2ccc(C(F)(F)F)c(Cl)c2)NC(=O)CN(C)C(=O)[C@H](Cc2ccc(C(F)(F)F)cc2)N(C)C(=O)[C@@H]2CCN2C(=O)[C@H](C)N(C)C1=O [Compound 1765] ([NMeL]I[NMeA][Aze][NMePhe(4-CF3)][Sar][hPhe(3-Cl-4-CF3)]P[Ac5c][NMeGly(cPent)][dNMeD]-Pyrrolidide; lactam N-11)
7.13

Follow-up item: CC[C@H](C)[C@@H]1NC(=O)[C@H](CC(C)C)N(C)C(=O)C[C@@H](C(=O)N(C)C)N(C)C(=O)[C@H](C2CCCC2)N(C)C(=O)C2(CCCC2)NC(=O)[C@@H]2CCCN2C(=O)[C@H](CCc2ccc(C(F)(F)F)c(F)c2)NC(=O)CN(C)C(=O)[C@H](C2CCCC2)N(C)C(=O)[C@@H]2CCN2C(=O)[C@H](C)N(C)C1=O [Compound 134] ([NMeL]I[NMeA][Aze][NMeGly(cPent)][Sar][hPhe(3-F,4-CF3)]P[Ac5c][NMeGly(cPent)][NMeD]-NMe2; lactam N-11)
9.21

Follow-up item: CC[C@H](C)[C@@H]1NC(=O)[C@H](CC(C)C)N(C)C(=O)C[C@@H](C(=O)N2CCCCC2)N(C)C(=O)[C@H](C(C)C)N(C)C(=O)C2(CCCC2)NC(=O)[C@@H]2CCCN2C(=O)[C@H](CCc2ccc(C(F)(F)F)c(Cl)c2)NC(=O)CN(C)C(=O)[C@H](C(C)C)N(C)C(=O)[C@@H]2CCN2C(=O)[C@H](C)N(C)C1=O [Compound 1737] ([NMeL]I[NMeA][Aze][NMeV][Sar][hPhe(3-Cl-4-CF3)]P[Ac5c][NMeV][NMeD]-Piperidide; lactam N-11)
8.08

Follow-up item: CC[C@H](C)[C@@H]1NC(=O)[C@H](CC(C)C)N(C)C(=O)C[C@@H](C(=O)N2CCC(C)CC2)NC(=O)[C@H](C(C)C)N(C)C(=O)C2(CCCC2)NC(=O)[C@@H]2CCCN2C(=O)[C@H](CCc2ccc(C(F)(F)F)c(Cl)c2)NC(=O)CN(C)C(=O)[C@H](CC2CCCCC2)N(C)C(=O)[C@@H]2CCN2C(=O)[C@H](C)N(C)C1=O [Compound 1161] ([NMeL]I[NMeA][Aze][NMeCha][Sar][hPhe(3-Cl-4-CF3)]P[Ac5c][NMeV]D-{Piperidide(4-Me)}; lactam N-11)
7.22

Follow-up item: CC[C@H](C)[C@@H]1NC(=O)[C@H](CC(C)C)N(C)C(=O)C[C@@H](C(=O)N2CCCCC2)N(C)C(=O)[C@H](C2CCCCC2)N(C)C(=O)C2(CCCC2)NC(=O)CN(CCN2CCC(F)(F)CC2)C(=O)[C@H](CCc2ccc(C(F)(F)F)c(Cl)c2)NC(=O)CN(C)C(=O)[C@H](CC2CCCCC2)N(C)C(=O)CN(C)C(=O)CN(C)C1=O [Compound 2022] ([NMeL]I[Sar][Sar][NMeCha][Sar][hPhe(3-Cl-4-CF3)][X77][Ac5c][NMeChg][NMeD]-Piperidide; lactam N-11)
8.42

Follow-up item: CC[C@H](C)[C@@H]1NC(=O)[C@H](CC(C)C)N(C)C(=O)C[C@@H](C(=O)N2CCCCC2)N(C)C(=O)[C@H](C2CCCC2)N(C)C(=O)C2(CCCC2)NC(=O)[C@@H]2CCCN2C(=O)[C@H](CCc2ccc(C(F)(F)F)c(Cl)c2)NC(=O)CN(C)C(=O)[C@H](CC2CCCCC2)N(C)C(=O)[C@@H]2CCN2C(=O)[C@H](C)N(C)C1=O [Compound 1787] ([NMeL]I[NMeA][Aze][NMeCha][Sar][hPhe(3-Cl-4-CF3)]P[Ac5c][NMeGly(cPent)][NMeD]-Piperidide; lactam N-11)
8.96

Follow-up item: CCO[C@@H]1C[C@H]2C(=O)NC3(CCCC3)C(=O)N(C)[C@@H](C3CCCC3)C(=O)N(C)[C@H](C(=O)N3CCC3)CC(=O)N(C)[C@@H](CC(C)C)C(=O)N[C@@H]([C@@H](C)CC)C(=O)N(C)[C@@H](C)C(=O)N3CC[C@H]3C(=O)N(C)[C@@H](CC3CCCCC3)C(=O)N(C)CC(=O)N[C@@H](CCc3ccc(C(F)(F)F)c(Cl)c3)C(=O)N2C1 [Compound 1158] ([NMeL]I[NMeA][Aze][NMeCha][Sar][hPhe(3-Cl-4-CF3)][Hyp](Et)[Ac5c][NMeGly(cPent)][NMeD]-{Azetidin(1-yl)}; lactam N-11)
9.28
